This collection of values is drawn from patent US7183267B2.

- target-of-assay: TEM-1 β-lactamase (Escherichia coli)
- assay-summary: TEM-1 β-lactamase inhibition assay (nitrocefin hydrolysis, 486 nm)
- Type: biochemical
- measurement-conditions: Ki, TEM-1 β-lactamase
pKi: −log10 of the molar value.
If the reported pKi equals or exceeds 5, assign rule met. If not, assign rule not met.

O=C(Oc1c(Cl)c(Cl)c(OC(=O)c2cc(B(O)O)cc([N+](=O)[O-])c2)c(Cl)c1Cl)c1cc(B(O)O)cc([N+](=O)[O-])c1 [Compound (2c)]; rule met
O=C(OCc1cccc2ccccc12)c1cc(B(O)O)cc([N+](=O)[O-])c1 [Compound (3e)]; rule not met
O=C(Oc1ccc(OC(=O)c2cc(B(O)O)cc([N+](=O)[O-])c2)cc1)c1cc(B(O)O)cc([N+](=O)[O-])c1 [Compound (2a)]; rule not met
O=C(Oc1ccc(OC(=O)c2cc(B(O)O)cc([N+](=O)[O-])c2)c(Cl)c1)c1cc(B(O)O)cc([N+](=O)[O-])c1 [Compound (2b)]; rule not met

* * *

- target-of-assay: TEM-1 β-lactamase (Escherichia coli, UniProt P62593)
- Sequence (P62593 24-286 limits assumed): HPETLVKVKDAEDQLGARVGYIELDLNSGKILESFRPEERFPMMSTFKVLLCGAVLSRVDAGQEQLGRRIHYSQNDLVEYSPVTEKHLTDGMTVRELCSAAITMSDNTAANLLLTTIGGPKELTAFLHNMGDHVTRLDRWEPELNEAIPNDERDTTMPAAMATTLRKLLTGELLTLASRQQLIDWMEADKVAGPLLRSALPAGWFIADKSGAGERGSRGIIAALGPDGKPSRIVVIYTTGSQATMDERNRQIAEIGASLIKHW
- assay-summary: Isothermal titration calorimetry, binding to TEM-1 β-lactamase (Example 17)
- measurement-conditions: ITC
- Method: Isothermal titration calorimetry was performed on a high-precision VP-ITC titration calorimeter (Microcal Inc., Northampton, Mass.). β-Lactamase solutions were titrated with inhibitors in 50 mM sodium phosphate, 2% DMSO, pH 7.0, with β-lactamase concentrations ranging from 15 to 25 μM and inhibitor concentrations ranging from 300 to 1000 μM. […] Data were analyzed using Origin 7.0 (OriginLab Corporation, Northampton, Mass.). […]
If the reported ΔH equals or exceeds -0.9 kcal/mol, assign satisfied. If not, assign not satisfied.

O=C(Oc1ccc(OC(=O)c2cc(B(O)O)cc([N+](=O)[O-])c2)c(Cl)c1)c1cc(B(O)O)cc([N+](=O)[O-])c1; satisfied
O=C(Oc1c(F)cccc1F)c1cc(B(O)O)cc([N+](=O)[O-])c1; not satisfied
O=C(Oc1cc(OC(=O)c2cc(B(O)O)cc([N+](=O)[O-])c2)cc(OC(=O)c2cc(B(O)O)cc([N+](=O)[O-])c2)c1)c1cc(B(O)O)cc([N+](=O)[O-])c1 [Compound (12a)]; satisfied
CC(C)(C)c1cc(OC(=O)c2cc(B(O)O)cc([N+](=O)[O-])c2)ccc1OC(=O)c1cc(B(O)O)cc([N+](=O)[O-])c1; satisfied
O=C(Oc1cccc(OC(=O)c2cc(B(O)O)cc([N+](=O)[O-])c2)c1)c1cc(B(O)O)cc([N+](=O)[O-])c1; satisfied
O=C(OCc1cccc2ccccc12)c1cc(B(O)O)cc([N+](=O)[O-])c1; satisfied
O=C(OCc1ccccc1COC(=O)c1cc(B(O)O)cc([N+](=O)[O-])c1)c1cc(B(O)O)cc([N+](=O)[O-])c1 [Compound (10a)]; not satisfied

* * *

- target-of-assay: AmpC β-lactamase (Escherichia coli, UniProt P00811)
- Construct: made in house; host or cells: E. coli BL21 (DE3)
- Sequence (P00811 20-377): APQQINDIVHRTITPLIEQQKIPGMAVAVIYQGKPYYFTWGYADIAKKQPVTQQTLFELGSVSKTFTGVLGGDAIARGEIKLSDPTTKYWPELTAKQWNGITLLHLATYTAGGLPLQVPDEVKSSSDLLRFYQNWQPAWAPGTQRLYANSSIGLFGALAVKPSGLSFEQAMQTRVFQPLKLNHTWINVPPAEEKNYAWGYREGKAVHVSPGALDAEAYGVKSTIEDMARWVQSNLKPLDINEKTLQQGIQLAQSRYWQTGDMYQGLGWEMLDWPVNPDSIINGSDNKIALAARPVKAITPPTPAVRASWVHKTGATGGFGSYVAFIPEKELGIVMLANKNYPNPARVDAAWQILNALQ
- measurement-conditions: binding to AmpC; ITC
- Protocol: Isothermal titration calorimetry was performed on a high-precision VP-ITC titration calorimeter (Microcal Inc., Northampton, Mass.). β-Lactamase solutions were titrated with inhibitors in 50 mM sodium phosphate, 2% DMSO, pH 7.0, with β-lactamase concentrations ranging from 15 to 25 μM and inhibitor concentrations ranging from 300 to 1000 μM. […] Data were analyzed using Origin 7.0 (OriginLab Corporation, Northampton, Mass.). […]
Here, each record is paired with measured −TΔS data.
measured-endpoint: −TΔS (kcal/mol)

O=C(OCc1ccccc1)c1cc(B(O)O)cc([N+](=O)[O-])c1; -1.482
O=C(OCc1cccc(B(O)O)c1)c1cc(O)cc(B(O)O)c1; -3.679
Nc1cc(B(O)O)cc(C(=O)OCc2cccc(B(O)O)c2)c1; 1.174
O=C(Oc1c(Cl)c(Cl)c(OC(=O)c2cc(B(O)O)cc([N+](=O)[O-])c2)c(Cl)c1Cl)c1cc(B(O)O)cc([N+](=O)[O-])c1; -6.642
